Where do the numbers come from? From paper PMC3401278.

# measurement.target: T1, E. coli LpxA (UDP-N-acetylglucosamine acyltransferase), native (E. coli, UniProt P0A722 1-262)
# T1 sequence (looked up): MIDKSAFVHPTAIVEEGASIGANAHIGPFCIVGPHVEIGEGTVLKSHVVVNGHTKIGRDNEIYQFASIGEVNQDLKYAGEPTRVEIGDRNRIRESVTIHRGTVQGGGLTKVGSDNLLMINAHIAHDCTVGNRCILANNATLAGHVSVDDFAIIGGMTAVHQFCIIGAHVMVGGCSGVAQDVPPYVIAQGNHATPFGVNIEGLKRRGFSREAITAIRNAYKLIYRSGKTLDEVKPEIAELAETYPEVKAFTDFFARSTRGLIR
# assay.procedure: fluorescence polarisation
Where no end group is shown, it is not given here.
Parameter Kd: see the listing below.
Response body: numeric value in µM, unit text excluded.

QHFMVPDINDMQ-NH2 [RJPXD31 (QHFMVPDINDMQ-NH2)] :: 119

Which Kd is listed for TNLYMLPKWDIP-NH2 [RJPXD33 (TNLYMLPKWDIP-NH2)] ? 22
